Entries annotated with measured growth inhibition
# Experiment Description: inhibition of 3D7 malaria parasite growth – strain 3D7 (AID 2306);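 note: 0% = DMSO wells and 100% = chloroquine plus artemisinin control wells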
# Protocol Conditions: P. falciparum 3D7 erythrocytic growth, LDH absorbance, 72 h; at 2 µM; hits give high values
Lab book: enter the figure in %, no units written.

These recorded examples may help you get a feel for the data.
Quick one: growth inhibition for COc1ccc(NC(=O)Nc2cccc(-c3cccc(-c4nc5ccc(F)cc5[nH]4)c3)c2)cc1 ? 99

Another molecule: CCOc1ccc(C(=O)Nc2cc(Br)c3c(c2)CNCC3)cc1Cl 92

Please give the result for O=C(Nc1cccc(OCc2ccccc2)c1)c1ccc(CN2CCC(Cc3ccccc3)CC2)cc1 too. 100

# repeat for COc1ccc(Oc2ccc(-c3c(C)[nH]c(C)c(Cl)c3=O)cc2)cc1 97

Next:
Please look up its growth inhibition: O=C(N1CCN(c2cccc(C(F)(F)F)c2)CC1)C(Cl)(Cl)Cl 89

Another molecule: COc1ccc(OC)c(-c2cccc(-c3cccc(NC(=O)c4ccc([N+](=O)[O-])o4)c3)n2)c1 98

Then CCCCCCN1CCN(Cc2cccc(NC(=O)c3cc4ccccc4o3)c2)CC1 ? 93

Okay, and COc1cccc(Nc2nccc(NCC(O)c3ccc(C(F)(F)F)cc3)n2)c1 (stereo not given) ? 99

Entry CC(C)N1CCC(N(Cc2ccc(-c3ccc(C(F)(F)F)cc3)cc2)C(=O)Cn2c(CCc3cccc(F)c3F)cc(=O)c3ccccc32)CC1 please 99
